# targetOrTestSystem: Interleukin-1 receptor-associated kinase 4 (Homo sapiens, UniProt Q9NWZ3)
# Sequence (Q9NWZ3 whole entry): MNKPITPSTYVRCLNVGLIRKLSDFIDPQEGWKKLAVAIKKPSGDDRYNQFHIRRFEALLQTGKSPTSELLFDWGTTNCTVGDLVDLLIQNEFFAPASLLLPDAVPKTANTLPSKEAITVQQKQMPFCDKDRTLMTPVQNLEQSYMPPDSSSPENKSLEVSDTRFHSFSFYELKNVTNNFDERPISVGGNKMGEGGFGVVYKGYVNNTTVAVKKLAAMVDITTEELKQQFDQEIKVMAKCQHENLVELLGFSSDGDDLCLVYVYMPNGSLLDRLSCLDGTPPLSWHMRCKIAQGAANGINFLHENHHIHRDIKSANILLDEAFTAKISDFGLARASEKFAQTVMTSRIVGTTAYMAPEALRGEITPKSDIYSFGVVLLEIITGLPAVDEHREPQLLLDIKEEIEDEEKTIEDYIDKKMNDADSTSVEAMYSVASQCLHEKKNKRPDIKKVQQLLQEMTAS
# testMethodNotes: Inhibition of recombinant human full-length His-tagged IRAK4 expressed in baculovirus expression system using 5-FAM-IPTSPITTTYFFFKKK-COOH as substrate measured after 240 mins by mobility shift assay
experimentalReadout: pIC50
pIC50 here: minus log base 10 of the concentration, concentration in moles per litre.

Please fill in: pIC50 reported for CC(C)c1ccn2ncnc(N[C@H]3CC[C@@H](N4CCN(C(=O)CCC(=O)N5CCC(CN6CCN(c7ccc8c(c7)C(=O)N(C7CCC(=O)NC7=O)C8=O)CC6)CC5)CC4)CC3)c12 (stereo not given in full) = 5.25

Please fill in: pIC50 reported for CC(C)c1ccn2ncnc(N[C@H]3CC[C@@H](N4CCN(C(=O)CCC(=O)N5CCC(CCN6CCN(c7ccc8c(c7)C(=O)N(C7CCC(=O)NC7=O)C8=O)CC6)CC5)CC4)CC3)c12 (stereo not given in full) = 5.85

Please fill in: pIC50 reported for CC(C)c1ccn2ncnc(N[C@H]3CC[C@@H](N4CCN(C(=O)CCC(=O)NCCOCCOCCNc5cccc6c5C(=O)N(C5CCC(=O)NC5=O)C6=O)CC4)CC3)c12 (stereo not given in full) = 5.31

Please fill in: pIC50 reported for CC(C)c1ccn2ncnc(N[C@H]3CC[C@@H](N4CCN(C(=O)CCC(=O)NCCCCCCNc5cccc6c5C(=O)N(C5CCC(=O)NC5=O)C6=O)CC4)CC3)c12 (stereo not given in full) = 5.59

###

# testMethodNotes: Octanol/buffer partition coefficient, log D of the compound at pH 7.4 by shake-flask method
# Format: physicochemical
Assign logD to each entry below.
No unit in the answer, only the number.

Please fill in: logD reported for CC(C)c1ccn2ncnc(N[C@H]3CC[C@@H](N4CCN(C(=O)CCC(=O)N5CCC(CCN6CCN(c7ccc8c(c7)C(=O)N(C7CCC(=O)N(C)C7=O)C8=O)CC6)CC5)CC4)CC3)c12 (stereo partly drawn) = 3.7

Please fill in: logD reported for CC(C)c1ccn2ncnc(N[C@H]3CC[C@@H](N4CCN(C(=O)CCC(=O)N5CCC(CCN6CCN(c7ccc8c(c7)C(=O)N(C7CCC(=O)NC7=O)C8=O)CC6)CC5)CC4)CC3)c12 (stereo partly drawn) = 3.1

Please fill in: logD reported for CC(C)c1ccn2ncnc(N[C@H]3CC[C@@H](N4CCN(C(=O)CCC(=O)NCCOCCOCCNc5cccc6c5C(=O)N(C5CCC(=O)NC5=O)C6=O)CC4)CC3)c12 (stereo partly drawn) = 2.3

###

Assign logD to each entry below.
# testMethodNotes: Octanol/buffer partition coefficient, log D of the compound at pH 7.4 by shake-flask method
# Format: physicochemical
No unit in the answer, only the number.

Please fill in: logD reported for CC(C)c1ccn2ncnc(N[C@H]3CC[C@@H](N4CCN(C(=O)CCC(=O)NCCOCCOCCOCCNc5cccc6c5C(=O)N(C5CCC(=O)NC5=O)C6=O)CC4)CC3)c12 (stereo not given in full) = 2.1

Please fill in: logD reported for CC(C)c1ccn2ncnc(N[C@H]3CC[C@@H](N4CCN(C(=O)CCOCCOCCOCCNc5cccc6c5C(=O)N(C5CCC(=O)NC5=O)C6=O)CC4)CC3)c12 (stereo not given in full) = 2.3

Please fill in: logD reported for CC(C)c1ccn2ncnc(N[C@H]3CC[C@@H](N4CCN(C(=O)CCOCCOCCOCCOCCOCCNc5cccc6c5C(=O)N(C5CCC(=O)NC5=O)C6=O)CC4)CC3)c12 (stereo not given in full) = 2.1

Please fill in: logD reported for CC(C)c1ccn2ncnc(N[C@H]3CC[C@@H](N4CCN(C(=O)CCC(=O)N5CCC(CN6CCN(c7ccc8c(c7)C(=O)N(C7CCC(=O)NC7=O)C8=O)CC6)CC5)CC4)CC3)c12 (stereo not given in full) = 3.1

###

# targetOrTestSystem: Interleukin-1 receptor-associated kinase 1 (Homo sapiens, UniProt P51617)
# Sequence (P51617 whole entry): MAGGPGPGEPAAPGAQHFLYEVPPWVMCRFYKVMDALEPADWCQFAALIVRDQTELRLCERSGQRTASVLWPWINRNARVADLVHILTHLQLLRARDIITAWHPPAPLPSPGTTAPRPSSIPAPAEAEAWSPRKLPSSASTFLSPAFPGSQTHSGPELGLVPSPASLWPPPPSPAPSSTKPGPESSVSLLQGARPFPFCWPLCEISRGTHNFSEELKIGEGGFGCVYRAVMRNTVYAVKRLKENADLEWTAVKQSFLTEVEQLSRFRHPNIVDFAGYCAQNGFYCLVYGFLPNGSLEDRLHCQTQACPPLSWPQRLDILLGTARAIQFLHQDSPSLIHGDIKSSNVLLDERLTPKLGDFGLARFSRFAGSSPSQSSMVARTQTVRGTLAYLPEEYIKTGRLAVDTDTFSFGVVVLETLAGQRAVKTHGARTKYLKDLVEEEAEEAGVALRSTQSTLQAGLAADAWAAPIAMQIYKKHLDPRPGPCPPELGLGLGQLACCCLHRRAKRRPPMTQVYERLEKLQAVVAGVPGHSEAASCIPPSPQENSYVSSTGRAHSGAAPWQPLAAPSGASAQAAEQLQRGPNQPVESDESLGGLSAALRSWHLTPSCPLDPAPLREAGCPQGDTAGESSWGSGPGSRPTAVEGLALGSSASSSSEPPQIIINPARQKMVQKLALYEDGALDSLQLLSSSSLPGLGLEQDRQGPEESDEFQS
# testMethodNotes: Displacement of polymer supported probe 25 binding to IRAK1 in human THP-1 cell lysates preincubated for 45 mins under shaking condition followed by probe addition and measured after 30 mins by mass spectrometry based chemoproteomic analysis
# conditionContext: read-out: Kd(app)
experimentalReadout: pKd
pKd here: minus log base 10 of the concentration, concentration in moles per litre.

Please fill in: pKd reported for CC(C)c1ccn2ncnc(N[C@H]3CC[C@@H](N4CCN(C(=O)CCC(=O)N5CCC(CCN6CCN(c7ccc8c(c7)C(=O)N(C7CCC(=O)NC7=O)C8=O)CC6)CC5)CC4)CC3)c12 (stereo partly specified) = 5.55

###

# targetOrTestSystem: Protein cereblon/Interleukin-1 receptor-associated kinase 3 (Homo sapiens, UniProt Q9Y616+Q96SW2)
# Sequence (Q96SW2 whole entry, looked up, one chain of several): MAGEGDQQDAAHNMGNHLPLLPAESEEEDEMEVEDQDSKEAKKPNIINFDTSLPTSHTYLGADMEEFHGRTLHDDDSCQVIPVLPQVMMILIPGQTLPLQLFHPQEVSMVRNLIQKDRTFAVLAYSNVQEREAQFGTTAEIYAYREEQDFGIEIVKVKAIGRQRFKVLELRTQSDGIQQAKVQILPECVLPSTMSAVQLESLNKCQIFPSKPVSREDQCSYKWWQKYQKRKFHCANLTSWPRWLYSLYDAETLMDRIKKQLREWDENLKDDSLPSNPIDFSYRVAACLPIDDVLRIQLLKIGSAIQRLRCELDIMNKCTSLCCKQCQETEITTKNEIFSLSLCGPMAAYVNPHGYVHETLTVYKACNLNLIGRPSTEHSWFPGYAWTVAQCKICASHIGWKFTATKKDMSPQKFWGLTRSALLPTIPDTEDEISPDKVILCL
# testMethodNotes: Protac activity at CRBN/IRAK3 in LPS-induced human THP1 cells assessed as induction of IRAK3 degradation at 1 uM by Western blot analysis relative to control
# Format: cell-based
# conditionContext: THP-1
Assign Activity to each entry below.
Enter your answer as a number in %; do not include the unit.

Please fill in: Activity reported for CC(C)c1ccn2ncnc(N[C@H]3CC[C@@H](N4CCN(C(=O)CCOCCOCCOCCOCCOCCNc5cccc6c5C(=O)N(C5CCC(=O)NC5=O)C6=O)CC4)CC3)c12 (stereo partly drawn) = 78

Please fill in: Activity reported for CC(C)c1ccn2ncnc(N[C@H]3CC[C@@H](N4CCN(C(=O)CCOCCOCCOCCNc5cccc6c5C(=O)N(C5CCC(=O)NC5=O)C6=O)CC4)CC3)c12 (stereo partly drawn) = 24

Please fill in: Activity reported for CC(C)c1ccn2ncnc(N[C@H]3CC[C@@H](N4CCN(C(=O)CCC(=O)NCCOCCOCCNc5cccc6c5C(=O)N(C5CCC(=O)NC5=O)C6=O)CC4)CC3)c12 (stereo partly drawn) = 17

Please fill in: Activity reported for CC(C)c1ccn2ncnc(N[C@H]3CC[C@@H](N4CCN(C(=O)CCC(=O)NCCOCCOCCOCCNc5cccc6c5C(=O)N(C5CCC(=O)NC5=O)C6=O)CC4)CC3)c12 (stereo partly drawn) = 42

Please fill in: Activity reported for CC(C)c1ccn2ncnc(N[C@H]3CC[C@@H](N4CCN(C(=O)CCC(=O)NCCOCCOCCOCCOCCNc5cccc6c5C(=O)N(C5CCC(=O)NC5=O)C6=O)CC4)CC3)c12 (stereo partly drawn) = 85

Please fill in: Activity reported for CC(C)c1ccn2ncnc(N[C@H]3CC[C@@H](N4CCN(C(=O)CCC(=O)NCCCCCCNc5cccc6c5C(=O)N(C5CCC(=O)NC5=O)C6=O)CC4)CC3)c12 (stereo partly drawn) = 0

Please fill in: Activity reported for CC(C)c1ccn2ncnc(N[C@H]3CC[C@@H](N4CCN(C(=O)CCC(=O)NCCCCNc5cccc6c5C(=O)N(C5CCC(=O)NC5=O)C6=O)CC4)CC3)c12 (stereo partly drawn) = 0

Please fill in: Activity reported for CC(C)c1ccn2ncnc(N[C@H]3CC[C@@H](N4CCN(C(=O)CCOCCOCCOCCOCCNc5cccc6c5C(=O)N(C5CCC(=O)NC5=O)C6=O)CC4)CC3)c12 (stereo partly drawn) = 48

###

# targetOrTestSystem: UniProtKB Q9NWZ3
# testMethodNotes: Inhibition of recombinant human full-length His-tagged IRAK4 expressed in baculovirus expression system using 5-FAM-IPTSPITTTYFFFKKK-COOH as substrate measured after 240 mins by mobility shift assay
pIC50: −log10 of the molar value.
Assign pIC50 to each entry below.

Please fill in: pIC50 reported for CC(C)c1ccn2ncnc(N[C@H]3CC[C@@H](N4CCN(C(=O)CCC(=O)NCCOCCOCCOCCNc5cccc6c5C(=O)N(C5CCC(=O)NC5=O)C6=O)CC4)CC3)c12 (stereo partly drawn) = < 6.00

Please fill in: pIC50 reported for CC(C)c1ccn2ncnc(N[C@H]3CC[C@@H](N4CCN(C(=O)CCC(=O)NCCOCCOCCOCCOCCNc5cccc6c5C(=O)N(C5CCC(=O)NC5=O)C6=O)CC4)CC3)c12 (stereo partly drawn) = < 6.00

Please fill in: pIC50 reported for CC(C)c1ccn2ncnc(N[C@H]3CC[C@@H](N4CCN(C(=O)CCC(=O)N5CCC(CCN6CCN(c7ccc8c(c7)C(=O)N(C7CCC(=O)N(C)C7=O)C8=O)CC6)CC5)CC4)CC3)c12 (stereo partly drawn) = < 6.00

###

# targetOrTestSystem: Interleukin-1 receptor-associated kinase 3 (Homo sapiens, UniProt Q9Y616)
# Sequence (Q9Y616 whole entry): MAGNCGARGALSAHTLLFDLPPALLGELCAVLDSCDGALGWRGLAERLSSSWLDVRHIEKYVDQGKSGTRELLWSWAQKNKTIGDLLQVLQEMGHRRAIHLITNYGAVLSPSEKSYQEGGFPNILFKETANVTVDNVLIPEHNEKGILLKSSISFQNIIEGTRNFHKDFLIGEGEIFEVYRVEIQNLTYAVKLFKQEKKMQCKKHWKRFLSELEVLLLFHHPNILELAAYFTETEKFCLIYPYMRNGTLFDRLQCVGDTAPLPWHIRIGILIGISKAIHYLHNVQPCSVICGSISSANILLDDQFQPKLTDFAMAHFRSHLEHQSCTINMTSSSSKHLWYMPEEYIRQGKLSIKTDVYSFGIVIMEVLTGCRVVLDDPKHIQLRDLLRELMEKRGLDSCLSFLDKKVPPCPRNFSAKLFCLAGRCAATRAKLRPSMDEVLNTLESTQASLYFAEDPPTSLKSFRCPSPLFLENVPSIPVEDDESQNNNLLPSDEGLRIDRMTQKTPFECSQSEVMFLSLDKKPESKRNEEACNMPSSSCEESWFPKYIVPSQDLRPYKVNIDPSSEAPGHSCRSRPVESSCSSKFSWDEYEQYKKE
# testMethodNotes: Displacement of polymer supported probe 25 binding to IRAK3 in human THP-1 cell lysates preincubated for 45 mins under shaking condition followed by probe addition and measured after 30 mins by mass spectrometry based chemoproteomic analysis
# conditionContext: read-out: Kd(app)
experimentalReadout: Kd (µM)
Enter your answer as a number in µM; do not include the unit.

Measured Kd (Interleukin-1 receptor-associated kinase 3 (Homo sapiens, UniProt Q9Y616)), entry CC(C)c1ccn2ncnc(N[C@H]3CC[C@@H](N4CCN(C(=O)CCC(=O)N5CCC(CCN6CCN(c7ccc8c(c7)C(=O)N(C7CCC(=O)NC7=O)C8=O)CC6)CC5)CC4)CC3)c12 (stereo partly specified) : 0.034
